test system: EKVX NSCLC; assay: NCI-60 one-dose screen, 48 h (100 = growth as untreated, 0 = no growth, -100 = all killed); conditions: 10 µM unless noted
The panel holds about 83,000 compounds, 20% with a hit somewhere; the sample as a whole holds those more often.

compound: COC(=O)[C@H](C)NC(=O)[C@@H](OC)[C@@H]1Cc2cc3cc(OC4CC(OC5CC(O)C(O)C(C)O5)C(O)C(C)O4)c(C)c(O)c3c(O)c2C(=O)[C@H]1OC1CC(OC2CC(OC3CC(C)(O)C(O)C(C)O3)C(O)C(C)O2)C(O)C(C)O1 (some centres undefined)
tested-target: EKVX NSCLC
growth / %: 21.9
//
compound: CN1CCN(CCCOc2cccc3nc(Nc4ccc(Cl)c(C(F)(F)F)c4)ccc23)CC1
tested-target: EKVX NSCLC
growth / %: 44.5
//
compound: CCc1ccc(/C=C/c2ccc(O)c3ncccc23)[n+](C)c1
tested-target: EKVX NSCLC
growth / %: 47
//
compound: O=c1nc2c(-c3nc4ccccc4s3)n[nH]n2c2sc3c(c12)CCCC3
tested-target: EKVX NSCLC
growth / %: 92

* * *

Listed next: entries and their corresponding growth.
tested on: ACHN renal; assay: NCI-60 one-dose screen, 48 h (100 = growth as untreated, 0 = no growth, -100 = all killed); conditions: 10 µM unless noted
About 83,000 compounds went through this panel and 20% of them were active in at least one assay; those are over-represented in the sample as a whole.

compound: CC1=CC2c3oc(-c4ccccc4)c(C(=O)c4ccccc4)c3CNC2C=C1 (stereo not given)
tested-target: ACHN renal
result-unit: %
growth: 87.4
//
compound: CC(C)=CCc1cc2c(cc1O)C1=C(C(=O)C3=C(NCCS3(=O)=O)C1=O)C(C=C(C)C)O2 (stereo not given)
tested-target: ACHN renal
result-unit: %
growth: 62.4
//
compound: COc1cccc(Nc2ncnn3ccc(CN4CC[C@@H](N)[C@H](O)C4)c23)c1
tested-target: ACHN renal
result-unit: %
growth: 2.8
//
compound: COc1ccc2c(CCC(c3ccccc3)c3ccccc3)c3[n+](cc2c1OC)CCc1cc2c(cc1-3)OCO2
tested-target: ACHN renal
result-unit: %
growth: 23.4
//
compound: COc1ccc(-n2c(=O)c3ccccc3n(Cc3ccc(C(=O)NO)cc3)c2=O)cc1
tested-target: ACHN renal
result-unit: %
growth: 50.3

* * *

System: CCRF-CEM leukemia
Assay: NCI-60 one-dose screen, 48 h
Details: 10 µM unless noted
Protocol: Growth inhibition of the CCRF-CEM human tumor cell line is measured as a screen for anti-cancer activity. Cells are grown in 96 well plates and exposed to the test compound for 48 hours. Compounds are tested at a single concentration, which is 10^-5 M for most compounds. The reported endpoint is percent growth (GI% or GIPRCNT), where numbers from 0 - 100% represent growth inhibition, and numbers from -100% - 0 represent cell death. For example, a value of 40 represents 60% growth inhibition. […]
This is part of a sample that, as a whole, favours compounds with a hit. Of some 83,000 tested, about 20% had one in any assay. The source made the active and inactive calls. The calls were made as follows: active = growth percent below 10; inactive = the rest.
Labels: True (active), False (inactive)

molecule: Cc1nc(N)sc1-c1ccnc(Nc2ccc(N3CCOCC3)cc2)n1
tested-target: CCRF-CEM leukemia
assigned-class: False

molecule: CC(C)Nc1cc(-c2c[nH]c(C(=O)N[C@H](CO)c3cccc(Cl)c3)c2)c(Cl)cn1
tested-target: CCRF-CEM leukemia
assigned-class: False

molecule: C[C@@H](C[C@H](CCO)c1cc(C(F)(F)F)cc(C(F)(F)F)c1)c1ccc2ccccc2c1
tested-target: CCRF-CEM leukemia
assigned-class: False

molecule: Clc1ccc(/C=C/c2cc(N3CCOCC3)c3cc(Cl)c(Cl)cc3n2)cc1
tested-target: CCRF-CEM leukemia
assigned-class: True

molecule: C1=C\COCc2cc(ccc2OCCN2CCCC2)Nc2nccc(n2)-c2cccc(c2)COC/1
tested-target: CCRF-CEM leukemia
assigned-class: True

molecule: CN1CCN(Cc2ccc(NC(=O)c3[nH]ncc3Nc3ncnc4sc5c(c34)CCCC5)cc2)CC1
tested-target: CCRF-CEM leukemia
assigned-class: True

molecule: O=C1C=CC2(NN=C(c3ccccc3)N2c2ccccc2)c2cccc(O)c21 (configuration not stated)
tested-target: CCRF-CEM leukemia
assigned-class: False

molecule: CC/C(=C(/c1ccc(Cl)cc1)c1ccc(OCCN2CCCCC2)cc1)c1ccc(Cl)cc1
tested-target: CCRF-CEM leukemia
assigned-class: False

molecule: O=C(/C=C/c1ccc2c(c1)OCO2)c1c(O)c2ccccc2oc1=O
tested-target: CCRF-CEM leukemia
assigned-class: False

molecule: C=CCn1c(=O)c2cnc(Nc3ccc(N4CCN(C)CC4)cc3)nc2n1-c1cccc(C(C)(C)O)n1
tested-target: CCRF-CEM leukemia
assigned-class: True

molecule: COC(=O)[C@]12CC[C@@H](C)[C@H](C)[C@@H]1C1=CC[C@@H]3[C@@]4(C)C(c5cnco5)=C[C@@](C)(CO)C4=CC[C@@]3(C)[C@]1(C)CC2
tested-target: CCRF-CEM leukemia
assigned-class: False

molecule: COc1cnc2c(c1)C(=O)c1c-2n(CCCNC2=NCCS2)c(=O)c2cc(Cl)ccc12
tested-target: CCRF-CEM leukemia
assigned-class: True

molecule: Nc1c2c(c(O)c3c1=C(CO)C=N3)=NCCS2=O (configuration not stated)
tested-target: CCRF-CEM leukemia
assigned-class: True

molecule: COc1ccc(-c2ccc3c(N4CCOC[C@@H]4C)nc(N4CCOC[C@@H]4C)nc3n2)cc1CO
tested-target: CCRF-CEM leukemia
assigned-class: False

molecule: Cc1cn(-c2cc(NC(=O)c3ccc(C)c(Nc4nccc(-c5cccnc5)n4)c3)cc(C(F)(F)F)c2)cn1
tested-target: CCRF-CEM leukemia
assigned-class: False

molecule: O=C(NC1CCNCC1)c1[nH]ncc1NC(=O)c1c(Cl)cccc1Cl
tested-target: CCRF-CEM leukemia
assigned-class: False

molecule: COc1ccc2c(CCc3ccc(Cl)cc3)c3[n+](cc2c1OC)CCc1cc2c(cc1-3)OCO2
tested-target: CCRF-CEM leukemia
assigned-class: False

molecule: COc1cnc2c(c1)C(=O)c1c-2n(CCCN2CCOCC2)c(=O)c2cc(Cl)ccc12
tested-target: CCRF-CEM leukemia
assigned-class: True

molecule: Cn1cc(-c2cnn3c(N)c(Br)c([C@@H]4CCCNC4)nc23)cn1
tested-target: CCRF-CEM leukemia
assigned-class: False

molecule: COC(=O)[C@]12CC[C@@H](C)[C@H](C)[C@@H]1C1=CC[C@@H]3[C@@]4(C)C[C@@H](OC(=O)/C=C/c5ccccc5)[C@H](O)[C@@](C)(CO)[C@@H]4[C@H](O)C[C@@]3(C)[C@]1(C)CC2
tested-target: CCRF-CEM leukemia
assigned-class: False

molecule: COc1ccc(C(=O)N2c3ccccc3Sc3ccccc32)c(F)c1
tested-target: CCRF-CEM leukemia
assigned-class: False

molecule: COc1cc2c(cc1OCCCCCN1CCN(c3ncnc4ccccc34)CC1)N=CC1CCCN1C2=O (configuration not stated)
tested-target: CCRF-CEM leukemia
assigned-class: True

molecule: Nc1c(Cl)cccc1[N+](=O)[O-]
tested-target: CCRF-CEM leukemia
assigned-class: False

molecule: CC(C)(C)OC(=O)N1CCC(O)[C@@H](O[Si](c2ccccc2)(c2ccccc2)C(C)(C)C)[C@H]1/C=C/c1ccccc1 (some centres not stated)
tested-target: CCRF-CEM leukemia
assigned-class: False

molecule: Cc1ccc(NC(=O)NC(=O)CSc2nc3ccccc3nc2C)cc1
tested-target: CCRF-CEM leukemia
assigned-class: False

molecule: CC(C)[C@@H]1CC[C@@H]2[C@@H]1[C@H](OC(=O)/C=C/c1ccccc1)[C@]1(C(C)C)C[C@@H](OC(=O)CO)[C@@]2(C)O1
tested-target: CCRF-CEM leukemia
assigned-class: False

molecule: CS(=O)(=O)N1CCN(Cc2cc3nc(-c4cccc5[nH]ncc45)nc(N4CCOCC4)c3s2)CC1
tested-target: CCRF-CEM leukemia
assigned-class: False

molecule: NC1(C(=O)N[C@@H](CCO)c2ccc(Cl)cc2)CCN(c2ncnc3[nH]ccc23)CC1
tested-target: CCRF-CEM leukemia
assigned-class: False

molecule: COC(=O)CC[C@@H](C)[C@H]1CC[C@H]2C3CC[C@@H]4C[C@@H]5CC[C@]4(C)[C@@]3(O5)[C@H](Br)[C@@H](Br)[C@]12C (some centres not stated)
tested-target: CCRF-CEM leukemia
assigned-class: False

molecule: Cc1cccc(NC(=O)[C@@H]2c3ccccc3C(=O)N(c3ccc(Cl)cc3)[C@H]2c2ccc(Cl)cc2)n1
tested-target: CCRF-CEM leukemia
assigned-class: False

molecule: COc1cc(Nc2ncc3c(n2)-c2ccc(Cl)cc2C(c2c(F)cccc2OC)=NC3)ccc1C(=O)O
tested-target: CCRF-CEM leukemia
assigned-class: False

molecule: Fc1ccc(NCc2cn(-c3ccccc3)nc2-c2ccc(OCc3ccccc3)cc2)cc1Cl
tested-target: CCRF-CEM leukemia
assigned-class: False

molecule: CCNCCNc1cc(-c2ccc(Cl)c(Cl)c2)c(C#N)c2nc3ccccc3n12
tested-target: CCRF-CEM leukemia
assigned-class: True

molecule: Ic1ccccc1-c1ccccc1
tested-target: CCRF-CEM leukemia
assigned-class: False

molecule: C=CCCCOC1[C@H](OCc2ccccc2)C(OCc2ccccc2)C(OC)O[C@@H]1CNC(=O)c1cccc(I)c1 (some centres not stated)
tested-target: CCRF-CEM leukemia
assigned-class: False

molecule: CCCCCc1ccc(C)cc1OC(=O)CCl
tested-target: CCRF-CEM leukemia
assigned-class: False

molecule: CC(N)C(Cc1ccccc1)c1ccc(Cl)cc1 (configuration not stated)
tested-target: CCRF-CEM leukemia
assigned-class: False

FYI, the data here is from PubChem BioAssay (NCI).
